Test system: Candida albicans
ASSAY_TEXT: Antifungal activity against Candida albicans at 20 ug/ml by paper disc method
Type: functional
CONDITION_DETAILS: read-out: IZ
zone of inhibition at 20 µg/mL below 9 mm gives NOT MET; zone of inhibition at 20 µg/mL at or above it gives MET.

COMPOUND: Cc1occc1-c1nnc2sc(-c3ccnc4ccccc34)nn12
LABEL_VALUE: MET
//
COMPOUND: COc1ccc(Cc2nnc3sc(Cc4c[nH]c5ccccc45)nn23)cc1OC
LABEL_VALUE: NOT MET
//
COMPOUND: COc1ccc2[nH]c(C)c(Cc3nn4c(-c5ccoc5C)nnc4s3)c2c1
LABEL_VALUE: MET
//
COMPOUND: COc1ccc2[nH]cc(Cc3nn4c(-c5ccoc5C)nnc4s3)c2c1
LABEL_VALUE: MET
//
COMPOUND: Cc1occc1-c1nnc2n1NC(c1ccco1)S2 (stereo not drawn)
LABEL_VALUE: MET
//
COMPOUND: COc1ccc(Cc2nnc3sc(-c4ccnc(Cl)c4)nn23)cc1OC
LABEL_VALUE: MET
//
COMPOUND: Cc1occc1-c1nnc2n1NC(c1cccn1C)S2 (stereo not drawn)
LABEL_VALUE: NOT MET
//
COMPOUND: COc1ccc2[nH]cc(Cc3nn4c(Cc5ccc(OC)c(OC)c5)nnc4s3)c2c1
LABEL_VALUE: NOT MET
//
COMPOUND: COc1ccc(Cl)c(-c2nnc3sc(-c4ccnc(F)c4)nn23)c1
LABEL_VALUE: MET
//
COMPOUND: Cc1cc(-c2nn3c(-c4ccoc4C)nnc3s2)c2ccccc2n1
LABEL_VALUE: MET
//
COMPOUND: COc1ccc(Cc2nnc3sc(-c4cc(O)nc(O)c4)nn23)cc1OC
LABEL_VALUE: NOT MET
//
COMPOUND: Cc1occc1-c1nnc2sc(Cc3c[nH]c4ccccc34)nn12
LABEL_VALUE: MET
//
COMPOUND: COc1ccc(Cl)c(-c2nnc3n2NC(c2ccco2)S3)c1 (stereo not drawn)
LABEL_VALUE: MET
//
COMPOUND: COc1ccc(Cc2nnc3n2NC(c2cccn2C)S3)cc1OC (stereo not drawn)
LABEL_VALUE: NOT MET
//
COMPOUND: COc1ccc(Cc2nnc3n2NC(c2ccc[nH]2)S3)cc1OC (stereo not drawn)
LABEL_VALUE: NOT MET
//
COMPOUND: Cc1occc1-c1nnc2sc(-c3cc(-c4ccccc4)nc4ccccc34)nn12
LABEL_VALUE: MET
//
COMPOUND: COc1ccc(Cc2nnc(S)n2N)cc1OC
LABEL_VALUE: NOT MET
//
COMPOUND: COc1ccc(Cl)c(-c2nnc3sc(-c4cc(O)nc(O)c4)nn23)c1
LABEL_VALUE: NOT MET
//
COMPOUND: COc1ccc(Cl)c(-c2nnc3sc(-c4cc(-c5ccccc5)nc5ccccc45)nn23)c1
LABEL_VALUE: MET
//
COMPOUND: COc1ccc(Cl)c(-c2nnc(S)n2N)c1
LABEL_VALUE: NOT MET
//
COMPOUND: COc1ccc(Cl)c(-c2nnc3sc(Cc4c[nH]c5ccccc45)nn23)c1
LABEL_VALUE: MET
